test system: IGROV1 ovarian; assay: NCI tumour cell line growth inhibition, 48 h
Property: GI50; scope: individual compounds

Look over these answered cases.
Value of measured GI50 for the entry O=C(Oc1ccccc1Cl)c1ccccc1Nc1cccc(C(F)(F)F)c1 : 28000 nM

Value of measured GI50 for the entry CN(C)c1ccc(Nc2c3ccccc3nc3cc(NC(=O)CCN4CCCC4)ccc23)cc1 : 291 nM

More entries:
Value of measured GI50 for the entry NC(=O)c1sc(-n2cnc3ccc(C(F)(F)F)cc32)cc1OCc1ccccc1Br : 2220 nM

Value of measured GI50 for the entry OCCn1cc(-c2cnc3nnn(Cc4ccc5ncccc5c4)c3n2)cn1 : > 100000 nM

Value of measured GI50 for the entry Cc1ccc2nc3c(n2c1)C(=O)C(=O)c1ccccc1-3 : 319 nM

Value of measured GI50 for the entry O=C1/C(=C/c2ccc(Cl)cc2)CN(C(=O)CCN2CCC(=NO)CC2)C/C1=C\c1ccc(Cl)cc1 : 807 nM

Value of measured GI50 for the entry CC(=O)Nc1ccc(-c2csc(Nc3cccc(-c4csc(-c5ccccc5)n4)c3)n2)cc1 : 21500 nM

Value of measured GI50 for the entry O=C(Nc1ccc(Nc2ccncc2)cc1)c1ccc(Nc2ccnc3ccc([N+](=O)[O-])cc23)cc1[N+](=O)[O-] : 14100 nM

Value of measured GI50 for the entry CCCCCCCCCCCC1=NC(C)(C)CN1CC(C)O (stereo not given) : 1890 nM

Value of measured GI50 for the entry COc1cc(-c2nc(-c3ccc(-c4nc5ccc(F)cc5[nH]4)cc3)no2)cc(OC)c1OC : 3810 nM

====

system: IGROV1 ovarian; assay: NCI tumour cell line growth inhibition, 48 h
Property: TGI; scope: individual molecules

Look over these answered cases.
Noted TGI for COc1ccc(-c2nc(-c3cnccn3)n(Cc3ccccc3)n2)cc1 , tested on IGROV1 ovarian: > 100 µM

Noted TGI for CCOC(=O)C(=O)Nc1ccccc1OCC , tested on IGROV1 ovarian: > 100 µM

Noted TGI for O=C(/C=C/c1ccccc1O)c1cccc2ccccc12 , tested on IGROV1 ovarian: > 100 µM

More entries:
Noted TGI for Cc1ccc(N=C2SC(=NN(C)C)SC2=Nc2ccc(C)cc2)cc1 , tested on IGROV1 ovarian: > 100 µM

Noted TGI for Nc1ccccc1OCCCOc1ccccc1N , tested on IGROV1 ovarian: > 100 µM

Noted TGI for CCOC(=O)C(NC(=O)CC)(Nc1ccc(S(=O)(=O)Nc2ccc(OC)nn2)cc1)C(F)(F)F (stereo not given) , tested on IGROV1 ovarian: > 100 µM

Noted TGI for COc1ccc(N=Nc2c(-c3ccccc3)nn(C(=O)CC(=O)Nc3ccccc3Cl)c2-c2ccccc2)cc1 , tested on IGROV1 ovarian: > 100 µM

====

Property: TGI; scope: individual compounds
system: HOP-18 NSCLC; assay: NCI tumour cell line growth inhibition, 48 h

Value of measured TGI for the entry CCCCCCCCCCCCCCCC(=O)OCC1OC(OC)C(NC(=O)N(CCCl)N=O)C(O)C1O (stereo not given) : > 100 µM

Value of measured TGI for the entry Cn1cnc(SC2=C3C(=O)C=C4S[C@H]5C[C@]42c2c(c(O)c4c6c2=[N+]3CCC=6C=N4)N5)c1CC(N)C(=O)O (stereo not given in full) : > 100 µM

Value of measured TGI for the entry NC(CCc1ncc(-c2ccccc2)s1)C(=O)O (stereo not given) : > 100 µM

Value of measured TGI for the entry O=S1c2ccccc2NC(c2ccc3ccccc3c2)CC1c1ccccc1 (stereo not given) : > 100 µM

More entries:
Value of measured TGI for the entry O=C1/C(=C/c2ccc(Cl)c(Cl)c2)CNC/C1=C\c1ccc(Cl)c(Cl)c1 : > 91.9 µM

Value of measured TGI for the entry c1ccc2c(c1)Sc1ccccc1N2C1CN2CCC1CC2 (stereo not given) : 47.5 µM

Value of measured TGI for the entry O=C1CCNC(=O)NC1 : > 100 µM

Value of measured TGI for the entry CCOC(OCC)C(CC)[Se]c1ccccc1 (stereo not given) : > 100 µM

Value of measured TGI for the entry Cc1cccc(C(C)C)c1NC(=O)CCl : > 100 µM

Value of measured TGI for the entry CC(O)C(NC(=O)c1ccccc1)C(=O)N(Cc1ccccc1)Cc1ccccc1 (stereo not given) : > 100 µM

Value of measured TGI for the entry O=C1C(Br)=C(Br)C(=O)c2ccccc21 : 35.5 µM

Value of measured TGI for the entry O=C(NN1C(=O)C(Cl)C1c1ccccc1Cl)c1ccccc1O (stereo not given) : > 100 µM

Value of measured TGI for the entry COc1ccc(C2=C(Cl)c3cc(OC)c(OC)cc3C2)cc1OC : > 100 µM

Value of measured TGI for the entry O=C1/C(=C/c2ccc(Cl)cc2)CCC1CN1CCOCC1 (stereo not given) : 29.7 µM

Value of measured TGI for the entry CCOc1ccc(NCC2CC/C(=C\c3ccc(Cl)cc3)C2=O)cc1 (stereo not given) : 54.6 µM

====

tested on: K-562 leukemia; test: NCI tumour cell line growth inhibition, 48 h
PROPERTY LABEL: GI50

Look over these answered cases.
Value of measured GI50 for the entry C=C(C)[C@@H]1CC[C@]2(C(=O)O)CC[C@]3(C)[C@H](CC[C@@H]4[C@@]5(C)C/C(=C/c6cccc(I)c6)C(=O)C(C)(C)[C@@H]5CC[C@]43C)[C@@H]12 : 2370 nM

Value of measured GI50 for the entry COc1ccc2c(c1)C(=O)c1c-2c(N2CCN(C(=O)CNCCN(C)C)CC2)nc2ccccc12 : 720 nM

More entries:
Value of measured GI50 for the entry COc1cc(/C(=C2/O[C@@H]([C@H]3COC(C)(C)O3)[C@H]3OC(C)(C)O[C@@H]23)c2ccc3c(c2)OCO3)cc(OC)c1OC : > 25000 nM

Value of measured GI50 for the entry COc1ccc(-n2cc(-c3cc(OC)c(OC)c(OC)c3)[nH]c2=S)cc1Cl : > 100000 nM

Value of measured GI50 for the entry O=C(Cn1c(C(=O)c2ccc(Cl)cc2)nc(-c2ccccc2)c1-c1ccccc1)c1ccc(Cl)cc1 : > 100000 nM

====

tested on: HOP-92 NSCLC; experiment: NCI tumour cell line growth inhibition, 48 h; in the data active means GI50 below about 0.43 µM; inactive means the rest
Hi there, use one of these labels in your reply, thanks! active, inactive

**Query** Called result for O=C(Cc1ccc(Nc2ccnc(C(F)(F)F)c2)cc1)Nc1cc(Cl)ccc1O
**Result** inactive

**Query** Called result for CCSc1ccc([C@@H]2[C@@H](N)C(=O)N2c2cc(OC)c(OC)c(OC)c2)cc1
**Result** inactive

**Query** Called result for Fc1ccc([C@@H]2CCNC[C@H]2COc2ccc3c(c2)OCO3)cc1
**Result** inactive

====

tested on: HCT-116 colon; experiment: NCI tumour cell line growth inhibition, 48 h; in the data active means GI50 below about 0.43 µM; inactive means the rest
Hi there, use one of these labels in your reply, thanks! TRUE (active), FALSE (inactive)

These solved cases illustrate the format of a correct answer.
**Query** Called result for CNC(=O)c1cc(Oc2ccc3nc(N[C@@H]4CCCC[C@H]4O)sc3c2)ccn1
**Result** FALSE

**Query** Called result for O=C1NC(=O)[C@@H](c2c[nH]c3ccccc23)[C@@H]1c1c[nH]c2ccccc12
**Result** FALSE

**Query** Called result for COc1ccc(-c2nnc(SCC(=O)Nc3ccc(C(=O)/C=C/c4cc(OC)c(OC)c(OC)c4)cc3)n2-c2ccccc2)cc1OC
**Result** FALSE

More entries:
**Query** Called result for COc1ccc(/C=N\NC(=O)c2ccc3nc(-c4ccc(Cl)cc4)[nH]c3c2)cc1
**Result** FALSE

**Query** Called result for O=c1c2c(=NCCN3CCCC3)cc3c(=O)n(CCCN4CCOCC4)c(=O)c4ccc(c(O)n1CCCN1CCOCC1)c2c4-3
**Result** TRUE

**Query** Called result for COc1ccc2c(c1)C(=O)c1c-2c(N2CCN(C(=O)CNCCN(C)C)CC2)nc2ccccc12
**Result** FALSE

**Query** Called result for O=C(Cc1csc2nc(-c3ccc(Br)cc3)cn12)N/N=C/c1ccc(Cl)cc1Cl
**Result** FALSE

**Query** Called result for CCOC(=O)Cn1c(-c2nonc2NC(=O)c2ccccc2F)nc2ccccc21
**Result** FALSE

**Query** Called result for CCCCCCCCNC(C)C(O)c1ccc(SC(C)C)cc1 (stereo not given)
**Result** FALSE

**Query** Called result for Nc1nc(-c2ccc(Cl)cc2)cc(-c2ccc(Cl)cc2)c1-c1nc2ccccc2o1
**Result** FALSE

**Query** Called result for O=C(Nc1ccc(Oc2ccc(NC(=O)Nc3ccc([N+](=O)[O-])cc3)cc2)cc1)Nc1ccc([N+](=O)[O-])cc1
**Result** FALSE

**Query** Called result for O=C1/C(=C/c2ccc(Cl)cc2)CN(C(=O)CCN2CCC(=NO)CC2)C/C1=C\c1ccc(Cl)cc1
**Result** TRUE

**Query** Called result for CC[C@H](C)[C@H](NC(=O)NC(C)(C)C)C(=O)N(C)[C@H](C[C@@H](OC(C)=O)c1nc(C(=O)N[C@@H](Cc2ccccc2)C[C@H](C)C(=O)OC)cs1)C(C)C
**Result** TRUE

**Query** Called result for CC(C)=CC(=O)N[C@@H]1CC2CCC3C(CC[C@@]4(C)C3CC[C@@H]4C(C)N(C)C)[C@@]2(C)C[C@@H]1O (stereo not given in full)
**Result** FALSE

**Query** Called result for CN(C)c1ccc(Nc2c3ccccc3nc3cc(NC(=O)CCN4CCCC4)ccc23)cc1
**Result** TRUE
